# Tested on: 93R30B
# experiment: Whole plant sugarbeet response to postemergence ALS-inhibiting herbicides
# Format: in vivo, Beta vulgaris L.
# applied conditions: 93R30B (SB) whole plant, postemergence, relative to Rel-1
readout label: R/S

Field: R/S (93R30B). Entry: CCc1cnc(C2=NC(C)(C(C)C)C(=O)N2)c(C(=O)O)c1 (stereo not shown)
300 X

Field: R/S (93R30B). Entry: COc1nc(C)nc(NC(=O)NS(=O)(=O)c2ccccc2Cl)n1
20 X

Field: R/S (93R30B). Entry: COCc1cnc(C2=NC(C)(C(C)C)C(=O)N2)c(C(=O)O)c1 (stereo not shown)
>250 X

Field: R/S (93R30B). Entry: Cc1cc(C)nc(NC(=O)NS(=O)(=O)c2ccccc2C(=O)O)n1
4X

Reference for the values: patent EP0960190B1
